# testTarget: UDP-glucuronosyltransferase 1A6 (Homo sapiens)
# Sequence (P19224 whole entry): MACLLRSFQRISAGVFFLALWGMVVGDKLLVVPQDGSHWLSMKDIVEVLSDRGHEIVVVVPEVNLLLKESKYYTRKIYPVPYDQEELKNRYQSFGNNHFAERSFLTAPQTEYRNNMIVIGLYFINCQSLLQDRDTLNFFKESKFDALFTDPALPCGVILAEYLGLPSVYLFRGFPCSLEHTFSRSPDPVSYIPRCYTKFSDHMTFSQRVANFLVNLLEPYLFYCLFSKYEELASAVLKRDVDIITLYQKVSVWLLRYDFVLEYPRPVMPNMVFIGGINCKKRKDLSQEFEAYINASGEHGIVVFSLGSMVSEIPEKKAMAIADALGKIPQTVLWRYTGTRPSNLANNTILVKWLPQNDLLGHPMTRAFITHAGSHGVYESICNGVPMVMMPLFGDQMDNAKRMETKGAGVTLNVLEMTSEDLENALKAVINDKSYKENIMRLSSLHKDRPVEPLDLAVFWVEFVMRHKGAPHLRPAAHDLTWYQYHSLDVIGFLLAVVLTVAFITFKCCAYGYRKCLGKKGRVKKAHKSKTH
pIC50: −log10 of the molar value.
quantityMeasured: pIC50

Looking for the measured pIC50 of O=C(/C=C(\O)C(=O)N1CCN(c2ccc(-n3cccc3)cc2)CC1)c1cc(Cc2cc(F)cc(F)c2)cn(Cc2ccccc2F)c1=O , can you help?
< 3.52

* * *

# testTarget: UDP-glucuronosyltransferase 2B7 (Homo sapiens, UniProt P16662)
# Sequence (P16662 whole entry): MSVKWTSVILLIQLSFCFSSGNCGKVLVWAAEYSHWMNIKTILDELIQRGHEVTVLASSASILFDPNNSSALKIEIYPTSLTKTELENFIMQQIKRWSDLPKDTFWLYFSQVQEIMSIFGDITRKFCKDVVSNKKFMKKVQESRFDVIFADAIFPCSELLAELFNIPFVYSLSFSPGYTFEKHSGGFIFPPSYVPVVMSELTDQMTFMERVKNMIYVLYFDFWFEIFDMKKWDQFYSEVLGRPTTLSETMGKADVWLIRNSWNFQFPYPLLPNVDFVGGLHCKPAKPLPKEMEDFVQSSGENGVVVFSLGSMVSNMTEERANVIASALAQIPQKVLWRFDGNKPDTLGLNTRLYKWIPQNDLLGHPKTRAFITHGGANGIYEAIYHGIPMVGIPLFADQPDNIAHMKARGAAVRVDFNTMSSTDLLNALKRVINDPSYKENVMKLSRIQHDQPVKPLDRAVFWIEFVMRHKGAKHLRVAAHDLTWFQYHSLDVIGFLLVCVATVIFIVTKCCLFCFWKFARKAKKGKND
quantityMeasured: IC50

Looking for the measured IC50 of O=C(/C=C(\O)C(=O)N1CCN(c2ccc(-n3cccc3)cc2)CC1)c1cc(Cc2cc(F)cc(F)c2)cn(Cc2ccccc2F)c1=O , can you help?
> 300 µM
